Cited source: patent US8268848B2

target-entity: OX2 (Homo sapiens)
Sequence (O43614 1-444): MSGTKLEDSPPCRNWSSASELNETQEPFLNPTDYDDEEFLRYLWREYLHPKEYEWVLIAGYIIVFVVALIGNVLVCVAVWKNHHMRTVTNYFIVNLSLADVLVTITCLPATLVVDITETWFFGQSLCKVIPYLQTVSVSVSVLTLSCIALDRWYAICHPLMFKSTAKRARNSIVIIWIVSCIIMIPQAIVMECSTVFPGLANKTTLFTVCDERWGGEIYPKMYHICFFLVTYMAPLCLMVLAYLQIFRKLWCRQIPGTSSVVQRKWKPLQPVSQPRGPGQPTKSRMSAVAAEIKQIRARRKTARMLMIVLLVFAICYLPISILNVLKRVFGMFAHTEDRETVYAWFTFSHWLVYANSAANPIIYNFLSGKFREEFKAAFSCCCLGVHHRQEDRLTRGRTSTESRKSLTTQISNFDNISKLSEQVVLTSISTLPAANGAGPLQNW
procedure-summary: Measurement of orexin receptor-binding ability ([125I]-OX-A, cell membranes, OX2)
Parameters: expressed in transfected cells; host or cells: CHO cells (membrane preparation)
test-conditions: OX2 (IC50) nM, membranes of recombinant CHO cells expressing OX2, 0.2 nM [125I]-OX-A
# strict inequality: IC50 < 4 nM yields 1, everything else yields -1

Some entries whose results are on file:
chemical-structure: COc1ccnc(NC(=O)[C@@H]2C[C@@]2(COc2cnc(C)nc2C)c2ccccc2)c1
classification: -1
--
chemical-structure: Cc1ncc(OC[C@@]2(c3cccc(C(F)(F)F)c3)C[C@H]2C(=O)Nc2ccc(F)cn2)c(C)n1
classification: 1
--
chemical-structure: COc1cccc([C@]2(COc3cnc(C)nc3C)C[C@H]2C(=O)Nc2ccc(F)cn2)c1
classification: -1
--
chemical-structure: Cc1ccc(NC(=O)[C@@H]2C[C@@]2(COc2cnc(C)nc2C)c2ccccc2)nc1
classification: -1

# next molecule below
Enquiry: Strictly below 4 nM in IC50? "CC(=O)c1cccc(NC(=O)[C@@H]2C[C@@]2(COc2cnc(C)nc2C)c2ccccc2)c1"
Return: -1

###

Recorded pIC50, one value per entry.
target-entity: UniProtKB O43613
Sequence (O43613 1-425): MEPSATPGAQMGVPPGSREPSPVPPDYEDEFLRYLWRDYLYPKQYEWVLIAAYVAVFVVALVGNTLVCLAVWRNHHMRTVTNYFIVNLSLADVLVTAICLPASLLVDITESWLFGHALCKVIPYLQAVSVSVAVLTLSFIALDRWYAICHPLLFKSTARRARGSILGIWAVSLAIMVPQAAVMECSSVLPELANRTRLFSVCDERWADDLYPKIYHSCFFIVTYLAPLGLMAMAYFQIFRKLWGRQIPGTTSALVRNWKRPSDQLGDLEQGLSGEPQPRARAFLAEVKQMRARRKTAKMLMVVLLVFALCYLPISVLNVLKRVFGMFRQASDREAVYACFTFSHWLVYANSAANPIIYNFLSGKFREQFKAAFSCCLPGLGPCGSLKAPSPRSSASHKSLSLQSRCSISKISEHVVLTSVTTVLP
procedure-summary: Measurement of orexin receptor-binding ability ([125I]-OX-A, cell membranes, OX1)
Parameters: expressed in transfected cells; host or cells: CHO cells (membrane preparation)
Field pIC50 (float): negative decimal logarithm of the concentration in molar.

Some compounds with recorded pIC50:
compound: Cc1ncc(OC[C@@]2(c3cccc(F)c3)C[C@H]2C(=O)Nc2cnc(F)c(C)c2)c(C)n1
endpoint: pIC50
reported: 6.67
//
compound: COCc1nc(C)ncc1OC[C@@]1(c2ccc(F)cc2)C[C@H]1C(=O)Nc1cc(C)c(F)cn1
endpoint: pIC50
reported: 8.05
//
compound: Cc1ncc(OCC2(c3cccc(F)c3F)CC2C(=O)Nc2ccc(F)cn2)c(C)n1 (stereo not shown)
endpoint: pIC50
reported: 7.19
//
compound: COCc1cc(NC(=O)[C@@H]2C[C@@]2(COc2cnc(C)nc2C)c2ccc(F)cc2)ncc1F
endpoint: pIC50
reported: 7.92
//
compound: Cc1ncc(OC[C@@]2(c3cccc(F)c3)C[C@H]2C(=O)Nc2ccccc2)c(C)n1
endpoint: pIC50
reported: 7.27

Enquiry: Tell me reported pIC50 for Cc1ncc(OCC2(c3ccccc3C)CC2C(=O)Nc2ccc(C#N)cn2)c(C)n1 (stereo not shown) , tested with UniProtKB O43613.
Return: 6.11

Enquiry: Another compound to look at: "CCc1nc(C)ncc1OC[C@@]1(c2cccc(F)c2)C[C@H]1C(=O)Nc1ccccn1"
Return: 8.06

Enquiry: Thanks! And "CCc1nc(C)ncc1OC[C@@]1(c2ccc(F)cc2)C[C@H]1C(=O)Nc1ccc(F)cn1" ?
Return: 7.80

Enquiry: Param item: Cc1ncc(OCC2(c3cccc(C(F)(F)F)c3)CC2C(=O)Nc2ccc(Cl)cn2)c(C)n1 (stereo not shown)
Return: 7.37

Enquiry: Entry to check: "COCc1cccc(NC(=O)[C@@H]2C[C@@]2(COc2cnc(C)nc2C)c2ccccc2)c1"
Return: 6.43

Enquiry: Note, next up: "Cc1ncc(OC[C@@]2(c3ccccc3)C[C@H]2C(=O)Nc2ccccc2F)c(C)n1"
Return: 6.18

Enquiry: Then "Cc1ccc(NC(=O)[C@@H]2C[C@@]2(COc2cnc(C)nc2C)c2ccccc2)nc1" ?
Return: 6.90

Enquiry: Same read-out for Cc1ccc(C2(COc3cnc(C)nc3C)CC2C(=O)Nc2ccc(Cl)cn2)cc1 (stereo not shown) ?
Return: 7.21

Enquiry: Another compound to check: Cc1ccc(C2(COc3cnc(C)nc3C)CC2C(=O)Nc2ccc(F)cn2)cc1 (stereo not shown)
Return: 7.48

Enquiry: Cool, now "Cc1ncc(OC[C@@]2(c3cccc(F)c3)C[C@H]2C(=O)Nc2ccc(F)c(F)c2)c(C)n1"
Return: 8.22
